# experiment: Pharmacokinetic determination in mouse (LC/MS/MS of plasma)
# Format: in vivo, ICR mice
# measurement_conditions: male, ICR, mouse, plasma, oral; mice, intragastric 5 mg/kg vs intravenous 2 mg/kg
measure_name: bioavailability (%)
Write the answer as a number in %, unit excluded.

*Q* Which value of bioavailability has been reported for "CC1=Nc2c(F)cc(-c3nc(Nc4ccc(C5CCN(C)CC5)cn4)ncc3F)cc2C12CCCC2" in the records?
*A* 75.1

====

# experiment: Plasma and brain exposure levels after single intragastric administration
# Type: in vivo, CD-1 mice
# measurement_conditions: male, mouse, po; CD-1 mice, intragastric 10 mg/kg, plasma; read-out: Area under curve AUC0-last, Plasma
Below is a list of entries, each paired with its recorded AUC(0-t) value.
Write the answer as a number in ng·h/mL, unit excluded.

                                   compound  endpoint_value
0  CCN1CCN(Cc2ccc(Nc3ncc(F)c(-c4cc(F)c5nc(C)n(C(C)C)c5c4)n3)nc2)CC1 [LY2835219, reference compound]            4250

Consider the record given below.
*Q* Which value of AUC(0-t) has been reported for "CC1=Nc2c(F)cc(-c3nc(Nc4ccc(C5CCN(C)CC5)cn4)ncc3F)cc2C12CCCC2" in the records?
*A* 7660

====

# experiment: Pharmacokinetic determination in mouse (LC/MS/MS of plasma)
# Type: in vivo, ICR mice
# measurement_conditions: male, ICR, mouse, plasma; mice, single intravenous administration, 2 mg/kg, Mean ± SD; read-out: Area under curve AUC0-∞
# Protocol: Pharmacokinetic Determination of Representative Compounds of this Disclosure in Mouse […] Whole blood was anticoagulated with EDTA-K2 and centrifuged, the supernatant was removed, and the residue was frozen at −20° C. until sample analysis. […] Plasma samples were analyzed by LC-MS/MS, sample pretreatment was performed using protein precipitation method, the linear range of sample analysis was 1-2000 ng/ml, and the lowest quantification limit was 1 ng/ml.
measure_name: AUC(0-inf) (ng·h/mL)
Write the answer as a number in ng·h/mL, unit excluded.

                                   compound  endpoint_value
0  CC1=Nc2c(F)cc(-c3nc(Nc4ccc(C5CCN(C)CC5)cn4)ncc3F)cc2C12CCCC2            1330

Consider the record given below.
*Q* Which value of AUC(0-inf) has been reported for CCN1CCN(Cc2ccc(Nc3ncc(F)c(-c4cc(F)c5nc(C)n(C(C)C)c5c4)n3)nc2)CC1 [LY2835219, reference compound] in the records?
*A* 679

====

# experiment: Rat pharmacokinetic determination (LC/MS/MS of plasma)
# Type: in vivo, SD rats
# measurement_conditions: male, rat, plasma; rats, single intravenous administration, 2 mg/kg, Mean ± SD; read-out: Half life T1/2 (converted)
measure_name: half-life (min)
Write the answer as a number in min, unit excluded.

*Q* Which value of half-life has been reported for "CC1=Nc2c(F)cc(-c3nc(Nc4ccc(C5CCN(C)CC5)cn4)ncc3F)cc2C12CCCC2" in the records?
*A* 520

====

Below is a list of entries, each paired with its recorded CDK9/CDK6 value.
# experimental_system: CDK6/CyclinD3 (Homo sapiens (Human), UniProt Q00534)
# Sequence (Q00534 whole entry): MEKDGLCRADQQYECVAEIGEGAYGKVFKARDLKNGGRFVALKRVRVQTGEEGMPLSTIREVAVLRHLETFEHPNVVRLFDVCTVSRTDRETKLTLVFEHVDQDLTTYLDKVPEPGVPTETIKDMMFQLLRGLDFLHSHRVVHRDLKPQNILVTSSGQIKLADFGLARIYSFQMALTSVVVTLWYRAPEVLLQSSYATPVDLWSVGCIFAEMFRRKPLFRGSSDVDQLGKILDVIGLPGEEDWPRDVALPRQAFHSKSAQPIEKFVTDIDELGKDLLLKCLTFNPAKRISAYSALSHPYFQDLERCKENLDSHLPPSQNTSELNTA
# Sequence (P30281 whole entry partner): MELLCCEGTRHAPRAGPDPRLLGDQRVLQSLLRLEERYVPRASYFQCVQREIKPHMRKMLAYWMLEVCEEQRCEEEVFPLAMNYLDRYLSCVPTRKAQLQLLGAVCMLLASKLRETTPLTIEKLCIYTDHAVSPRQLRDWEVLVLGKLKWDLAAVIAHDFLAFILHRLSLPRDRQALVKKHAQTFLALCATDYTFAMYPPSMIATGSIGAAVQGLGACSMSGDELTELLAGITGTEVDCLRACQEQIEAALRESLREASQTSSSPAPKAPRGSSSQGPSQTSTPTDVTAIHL
# experiment: CDK kinase inhibitory activity, ADP-Glo Kinase Assay, CDK6/CyclinD3
# Format: biochemical
# measurement_conditions: ratio of IC50s, selectivity for CDK6 over CDK9
I only need the number, thanks.

As a guide, the following entries are already answered.
In [3]: df
Out[3]:
                                   compound  endpoint_value
0  CC1=Nc2c(F)cc(-c3nc(Nc4ccc(N5CCNCC5)cn4)ncc3F)cc2C1(C)C            5.69
1  CCC1(C)C(C)=Nc2c(F)cc(-c3nc(Nc4ccc(C5CCN(C)CC5)cn4)ncc3F)cc21 (stereo not drawn)            0.13
2  CC1=Nc2c(F)cc(-c3nc(Nc4ccc(N5CCN(CCO)CC5)cn4)ncc3F)cc2C12CCCC2            0.15
3  CCC1(C)C(C)=Nc2c(F)cc(-c3nc(Nc4ccc(N5CCN(C)CC5)cn4)ncc3F)cc21 (stereo not drawn)            0.36
4  CCN1CCN(c2ccc(Nc3ncc(F)c(-c4ccc5c(c4)C4(CCCC4)C(C)=N5)n3)nc2)CC1           0.009
5  CC1=Nc2ccc(-c3nc(Nc4ccc(N5CCN(C)CC5)cn4)ncc3F)cc2C12CCCC2            0.12

*Q* Which value of CDK9/CDK6 has been reported for "CCN1CCN(Cc2ccc(Nc3ncc(F)c(-c4ccc5c(c4)C4(CCCC4)C(C)=N5)n3)nc2)CC1" in the records?
*A* 0.71

*Q* Then this compound: "CCC1(CC)C(C)=Nc2c(F)cc(-c3nc(Nc4ccc(N5CCN(C)CC5)cn4)ncc3F)cc21"
*A* 1.81

*Q* Then this compound: "CC1=Nc2c(F)cc(-c3nc(Nc4ccc(C5CCNCC5)cn4)ncc3F)cc2C12CCCC2"
*A* 6.56

====

# experiment: Plasma and brain exposure levels after single intragastric administration
# Type: in vivo, CD-1 mice
# measurement_conditions: male, mouse, po; CD-1 mice, intragastric 10 mg/kg, brain; read-out: Area under curve AUC0-last, Brain
Below is a list of entries, each paired with its recorded AUC(0-t) value.
Write the answer as a number in ng·h/mL, unit excluded.

                                   molecule  measure_name  unit_spec  endpoint_value
0  CCN1CCN(Cc2ccc(Nc3ncc(F)c(-c4cc(F)c5nc(C)n(C(C)C)c5c4)n3)nc2)CC1 [LY2835219, reference compound]      AUC(0-t)    ng·h/mL            1110

Consider the record given below.
*Q* Which value of AUC(0-t) has been reported for "CC1=Nc2c(F)cc(-c3nc(Nc4ccc(C5CCN(C)CC5)cn4)ncc3F)cc2C12CCCC2" in the records?
*A* 16800

====

# experiment: Plasma and brain exposure levels after single intragastric administration
# Type: in vivo, CD-1 mice
# measurement_conditions: male, mouse, brain/plasma, po; CD-1 mice, intragastric 10 mg/kg, ratio; read-out: Cmax Brain/Plasma
measure_name: Kp
I only need the number, thanks.

*Q* Which value of Kp has been reported for CC1=Nc2c(F)cc(-c3nc(Nc4ccc(C5CCN(C)CC5)cn4)ncc3F)cc2C12CCCC2 [Example 17] in the records?
*A* 1.98

====

# experiment: Pharmacokinetic determination in mouse (LC/MS/MS of plasma)
# Type: in vivo, ICR mice
# measurement_conditions: male, ICR, mouse, plasma, po; mice, single intragastric administration, 5 mg/kg, Mean ± SD; read-out: Blood concentration Cmax
measure_name: Cmax (ng/mL)
Write the answer as a number in ng/mL, unit excluded.

*Q* Which value of Cmax has been reported for CC1=Nc2c(F)cc(-c3nc(Nc4ccc(C5CCN(C)CC5)cn4)ncc3F)cc2C12CCCC2 [Example 17] in the records?
*A* 134

====

# experimental_system: CDK6/CyclinD3 (Homo sapiens (Human))
# experiment: CDK kinase inhibitory activity, ADP-Glo Kinase Assay, CDK6/CyclinD3
# Type: biochemical
# measurement_conditions: ratio of IC50s, selectivity for CDK6 over CDK1
# Protocol: Measurement of CDK kinase inhibitory activity of the compounds of this disclosure. In vitro inhibitory effect of the compounds of the disclosure on CDK (CDK1, CDK4 and CDK6) kinase activity was tested by the following method. 1.1 Instrument and Kit Information […] The inhibition rate of each compound at each concentration point was calculated by the formula as follows and curve fitting was performed by GraphPad Prism 5 software to obtain the IC50 value.
Each entry gets 0 (no) if its CDK1/CDK6 stays under 9, and 1 (yes) if its CDK1/CDK6 is 9 or above.

Examples from the recorded data:
                                   compound    class
0  CCC1(C)C(C)=Nc2c(F)cc(-c3nc(Nc4ccc5c(n4)CCN(C(=O)CO)C5)ncc3F)cc21 (centres unmarked) [Example 39]   0 (no)
1  CC1=Nc2ccc(-c3nc(Nc4ccc(C5CCN(C)CC5)cn4)ncc3F)cc2C1(C)C [Example 37]   0 (no)
2  CC1=Nc2c(F)cc(-c3nc(Nc4ccc(N5CCN(C)CC5)cn4)ncc3F)cc2C12CCCC2 [Example 20]  1 (yes)
3  CCC1(CC)C(C)=Nc2c(F)cc(-c3nc(Nc4ccc(C5CCN(C)CC5)cn4)ncc3F)cc21 [Example 38]  1 (yes)
4  CCN1CCN(c2ccc(Nc3ncc(F)c(-c4ccc5c(c4)C(C)(CC)C(C)=N5)n3)nc2)CC1 (centres unmarked) [Example 36]  1 (yes)

*Q* Item CC1=Nc2ccc(-c3nc(Nc4ccc(C5CCNCC5)cn4)ncc3F)cc2C12CCCC2 [Example 15] with CDK1/CDK6 of 9 or above?
*A* 0 (no)

*Q* Then this compound: CCC1(C)C(C)=Nc2ccc(-c3nc(Nc4ccc(C5CCNCC5)cn4)ncc3F)cc21 (centres unmarked) [Example 33]
*A* 1 (yes)
